Target: Tyrosine-protein kinase ABL1 (Homo sapiens, UniProt P00519)
Sequence (P00519 whole entry): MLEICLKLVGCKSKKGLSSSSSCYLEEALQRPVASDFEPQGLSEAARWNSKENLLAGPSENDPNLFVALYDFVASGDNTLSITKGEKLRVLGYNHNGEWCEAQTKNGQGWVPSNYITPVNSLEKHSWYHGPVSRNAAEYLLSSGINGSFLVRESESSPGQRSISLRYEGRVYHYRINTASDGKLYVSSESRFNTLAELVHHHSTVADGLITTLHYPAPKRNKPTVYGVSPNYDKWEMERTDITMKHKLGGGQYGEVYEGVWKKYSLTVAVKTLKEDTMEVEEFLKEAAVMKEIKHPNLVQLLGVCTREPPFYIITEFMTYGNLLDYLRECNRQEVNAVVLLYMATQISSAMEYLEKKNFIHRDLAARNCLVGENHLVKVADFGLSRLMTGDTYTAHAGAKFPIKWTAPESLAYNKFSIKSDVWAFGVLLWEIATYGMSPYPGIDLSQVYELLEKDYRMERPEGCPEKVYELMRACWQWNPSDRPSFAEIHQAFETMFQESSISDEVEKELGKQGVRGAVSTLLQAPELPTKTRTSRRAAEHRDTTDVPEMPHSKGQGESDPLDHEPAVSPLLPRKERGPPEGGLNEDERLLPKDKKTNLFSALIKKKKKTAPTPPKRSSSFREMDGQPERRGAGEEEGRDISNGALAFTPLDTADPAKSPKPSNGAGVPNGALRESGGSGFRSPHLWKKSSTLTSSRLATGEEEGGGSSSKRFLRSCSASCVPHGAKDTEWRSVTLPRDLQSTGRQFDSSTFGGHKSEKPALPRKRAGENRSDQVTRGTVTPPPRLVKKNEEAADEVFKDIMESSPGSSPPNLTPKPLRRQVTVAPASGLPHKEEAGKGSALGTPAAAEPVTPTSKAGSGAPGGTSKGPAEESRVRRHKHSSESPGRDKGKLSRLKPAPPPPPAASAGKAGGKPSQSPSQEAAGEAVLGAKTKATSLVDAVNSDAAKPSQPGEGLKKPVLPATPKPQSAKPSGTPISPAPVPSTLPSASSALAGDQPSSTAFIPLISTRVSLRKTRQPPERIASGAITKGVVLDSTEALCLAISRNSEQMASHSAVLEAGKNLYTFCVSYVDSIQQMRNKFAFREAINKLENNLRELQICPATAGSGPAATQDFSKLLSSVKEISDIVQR
Assay: Inhibition of ABL at 30 uM by microfluidic mobility shift assay
So basically: inhibition at 10% or higher? That is 1 (yes). Lower than 10%? That is 0 (no).

Confirm if inhibition reported for the compound `Cc1cc2c(cn1)c(N)nn2C` is 10% or above.
0 (no)

Param item: `Cn1nc(N)c2c(=O)[nH]c(-c3ccccc3)cc21`
1 (yes)

Param item: `Nc1c2cnc(-c3ccccc3)cc2nn1-c1ccccc1`
1 (yes)

Param item: `COc1ccc(-c2cc3[nH]nc(N)c3c(=O)[nH]2)cc1`
1 (yes)

Param item: `Cc1cc2c(c(NC(=O)Nc3ccccc3)nn2C)c(=O)[nH]1`
1 (yes)

Param item: `COCCNc1nc(-c2ccccc2)cc2c1c(N)nn2C`
0 (no)

Param item: `Cc1nc(N)c2c(=O)[nH]c(C)cc2n1`
1 (yes)

Param item: `COc1ccc(-c2c(C)[nH]c(=O)c3c(N)nn(C)c23)cc1`
1 (yes)

Param item: `Nc1c2c(=O)[nH]c(-c3ccccc3)cc2nn1-c1ccccc1`
1 (yes)

Param item: `Cc1cc2c(c(N)nn2C)c(=O)[nH]1`
0 (no)

Param item: `CN1CCN(c2ccc(-c3cc4[nH]nc(N)c4c(=O)[nH]3)cc2)CC1`
1 (yes)

Param item: `Nc1c2c(=O)[nH]c(-c3ccccc3)cc2nn1-c1ccccn1`
1 (yes)

Param item: `COc1cccc(-c2cc3c(c(N)nn3C)c(=O)[nH]2)c1`
1 (yes)

Param item: `COc1ccccc1-c1cc2nn(-c3ccccc3)c(N)c2c(=O)[nH]1`
1 (yes)

Param item: `Nc1n[nH]c2cc(-c3ccccn3)[nH]c(=O)c12`
1 (yes)

Param item: `Cc1cc2[nH]ncc2c(=O)[nH]1`
0 (no)

Param item: `Cc1cc2[nH]nc(N)c2c(=O)[nH]1`
1 (yes)

Param item: `Nc1n[nH]c2cc(CC3CCNCC3)[nH]c(=O)c12`
0 (no)

Param item: `Cc1cc2[nH]nc(N)c2c(N2CCCCC2)n1`
1 (yes)

Origin of the recorded values: ChEMBL document CHEMBL1811853
